Ref: patent US11076595B2

Tested on: Echinochloa crus-galli
Experiment: Test Example 12: herbicidal effect test by treatment during growing period in paddy field
Format: in vivo
Conditions: 120 g/10a; treatment seven days after sowing in flooded paddy pot; assessed 14 days after treatment
Would you kindly list Weed suppression rate (%) Echinochloa crus-galli for each of these molecules?
Return type: number; implicit unit %.

Request: May I ask what Weed suppression rate (%) Echinochloa crus-galli has been recorded for `Cc1ccc(S(=O)(=O)n2ncn(C(=O)N(c3ccc(Cl)cn3)C(C)C)c2=O)cc1` ?
Response: 100

Request: And `CCS(=O)(=O)n1ncn(C(=O)N(c2ccc(F)c(F)c2F)C(C)C)c1=O` ?
Response: 100

Request: Subsequent entry: `Cc1cc(F)ccc1N(C(=O)n1cnn(S(=O)(=O)c2ccc(Cl)cc2)c1=O)C(C)C`
Response: 60

Request: Moving on to the next molecule: `CC(C)N(C(=O)n1cnn(S(=O)(=O)c2ccc(Cl)cc2)c1=O)c1ccc(F)c(F)c1F`
Response: 60
